system: Trypanosoma cruzi; test: Trypanocidal activity against intracellular amastigote stage of Trypanosoma cruzi CL-B5 infected in mouse NCTC-929 cells assessed as reduction of parasite load after 7 days by CPRG-based colorimetric analysis; conditions: nctc-929
measured-quantity: IC50

> print(dat)
                                   compound  measured.quantity  experimental.value
1     Cc1cc2cc(NS(=O)(=O)c3ccccc3)ccc2[nH]1               IC50          Not Active
2           O=S(=O)(Nc1ccc2ncsc2c1)c1ccccc1               IC50          Not Active
3  CC1CCCN(S(=O)(=O)c2cccc3ccccc23)C1 (centres undefined)               IC50          Not Active
4        O=S(=O)(Nc1ccc2[nH]ncc2c1)c1ccccc1               IC50          Not Active
